# test-method-notes: Cytotoxic activity, normal Vero cell line
# Type: cell-based
# recorded-conditions: African green monkey, Vero cells (normal cell line)
experimental-readout: CC50 (µg/mL)
Give bare numbers, in µg/mL.

compound | experimental-readout | reading-unit | test-value
Cc1ccccc1NC(=O)C1C(=O)C(c2ccccc2)c2ccc3c(c21)C(=O)c1ccccc1C3=O (centres unmarked) [Compound 1] | CC50 | µg/mL | 93

// next item, CC50 requested
Ask: Sample COc1cccc2c1C(=O)c1c(O)c3c(c(O)c1C2=O)C[C@@](O)(C(=O)CO)C[C@@H]3O[C@H]1C[C@H](N)[C@H](O)[C@H](C)O1 [Doxorubicin, reference compound] — what was its CC50?
Reply: 19.9
